- Protocol summary: Dedicated pharmacokinetic study, single oral dose
- Assay type: in vivo, C57BL/6 mice
- Test context: female, C57BL/6, mouse, plasma; mice; PO 50 mg/kg study
Reported property: Tmax (h)
Express the result in h but write the number alone.

Worked set:
Cc1cn(-c2cc(CN3CCC[C@H](N)C3)cc(NC(=O)c3cc(-c4ccccc4)ccn3)c2)cn1 | 2
Cc1cnc(C(=O)Nc2cc(CN3CCC(F)(F)[C@H](N)C3)cc(-c3ccc(C(F)(F)F)nc3)c2)cc1-c1ccccc1 | 1

# evaluate next
q: Quick check: Tmax of Cc1ccc(-c2cc(CN3CCC(F)(F)[C@H](N)C3)cc(NC(=O)c3cc(-c4ccccc4)ccn3)c2)cn1 ?
a: 4
